The measurements presented in this section are drawn from patent US4032635A.

- Test system: primary antibody formation to sheep red blood cells (SRBC), spleen cells
- Experiment notes: Suppression of primary antibody formation (plaque forming cells, Jerne's method)
- Assay type: in vivo, mice (ddY-strain)
- Stated conditions: Erythrocyte, ip, 96 h; 1 mg./mouse i.p.; read-out: Suppression, Plaque Forming Cells (suppression rate of primary antibody formation)
Documented inhibition in vivo at 1 mg across a set of compounds

[
  {
    "Compound": "COc1c(Cl)cc(NC(=O)c2ccccc2O)cc1Cl",
    "Value": "50 to 75%"
  },
  {
    "Compound": "O=C(O)COc1c(Cl)cc(NC(=O)c2ccccc2O)cc1Cl",
    "Value": "0 to 25%"
  },
  {
    "Compound": "O=C(Nc1cc(Cl)cc(Cl)c1O)c1ccccc1O [Compound-2, 3',5'-Dichloro-2,2'-dihydroxybenzanilide]",
    "Value": "> 75%"
  }
]

Any idea what its inhibition in vivo at 1 mg is? The compound is "O=C(Nc1cc(F)c(O)c(Cl)c1)c1ccccc1O"
> 75%

Any idea what its inhibition in vivo at 1 mg is? The compound is "CCOc1c(Br)cc(NC(=O)c2ccccc2O)cc1Br"
0 to 25%

Any idea what its inhibition in vivo at 1 mg is? The compound is CC(=O)Oc1ccccc1C(=O)Nc1cc(Cl)c(OC(C)=O)c(Cl)c1 [Compound-4, 2,4'-Diacetoxy-3',5'-dichlorobenzanilide]
50 to 75%

Any idea what its inhibition in vivo at 1 mg is? The compound is "CCOc1ccc(NC(=O)c2ccc(F)cc2O)cc1Cl"
25 to 50%

Any idea what its inhibition in vivo at 1 mg is? The compound is "CC(=O)Oc1ccccc1C(=O)Nc1cc(Cl)cc(Cl)c1OC(C)=O"
50 to 75%

Any idea what its inhibition in vivo at 1 mg is? The compound is O=C(Nc1cc(Br)c(O)c(Br)c1)c1ccccc1O [Compound-12, 3',5'-Dibromo-2,4'-dihydroxybenzanilide]
0 to 25%

Any idea what its inhibition in vivo at 1 mg is? The compound is "Cc1cc(Cl)cc(NC(=O)c2ccccc2O)c1O"
25 to 50%

Any idea what its inhibition in vivo at 1 mg is? The compound is COc1ccc(NC(=O)c2ccccc2O)cc1 [Compound-27, 2-Hydroxy-4'-methoxybenzanilide]
> 75%

Any idea what its inhibition in vivo at 1 mg is? The compound is "CCOc1ccc(NC(=O)c2ccc(F)cc2O)cc1"
50 to 75%

Any idea what its inhibition in vivo at 1 mg is? The compound is "CC(=O)Oc1ccccc1C(=O)Nc1cccc(Cl)c1OC(C)=O"
50 to 75%

* * *

- Experiment notes: Acute toxicity, intraperitoneal
- Stated conditions: mouse, in vivo, ip, mice, read-out: LD50 (approximate)
Documented LD50 across a set of compounds
# output: bare number, implied unit mg/kg

[
  {
    "Compound": "COc1ccc(NC(=O)c2ccc(C)cc2O)cc1 [Compound-29, 2-Hydroxy-4-methyl-4'-methoxybenzanilide]",
    "Metric name": "LD50",
    "Value": 2500
  },
  {
    "Compound": "O=C(Nc1cc(Br)cc(Br)c1O)c1ccccc1O",
    "Metric name": "LD50",
    "Value": 1280
  },
  {
    "Compound": "O=C(Nc1cc(Cl)cc(Cl)c1O)c1ccccc1O [Compound-2, 3',5'-Dichloro-2,2'-dihydroxybenzanilide]",
    "Metric name": "LD50",
    "Value": 2500
  },
  {
    "Compound": "CCC(=O)Oc1ccccc1C(=O)Nc1cc(Br)cc(Br)c1OC(=O)CC",
    "Metric name": "LD50",
    "Value": 2200
  },
  {
    "Compound": "O=C(Nc1cc(Cl)c(O)c(Cl)c1)c1ccccc1O [Compound-1, 3',5'-Dichloro-2,4'-dihydroxybenzanilide]",
    "Metric name": "LD50",
    "Value": 2400
  },
  {
    "Compound": "CC(=O)Oc1ccccc1C(=O)Nc1cccc(Cl)c1OC(C)=O",
    "Metric name": "LD50",
    "Value": 2500
  }
]

Any idea what its LD50 is? The compound is "Cc1cc(Cl)cc(NC(=O)c2ccccc2O)c1O"
1800

Any idea what its LD50 is? The compound is "O=C(Oc1ccccc1C(=O)Nc1cc(Cl)c(OC(=O)c2ccccc2)c(Cl)c1)c1ccccc1"
2800

Any idea what its LD50 is? The compound is O=C(Nc1cc(Br)c(O)c(Br)c1)c1ccccc1O [Compound-12, 3',5'-Dibromo-2,4'-dihydroxybenzanilide]
1100

Any idea what its LD50 is? The compound is "COc1ccc(NC(=O)c2ccc(F)cc2O)cc1"
2800

Any idea what its LD50 is? The compound is "O=C(Nc1cccc(Cl)c1O)c1ccccc1O"
1550

* * *

Documented inhibition in vivo at 1 mg across a set of compounds
- Tested on: primary antibody formation to sheep red blood cells (SRBC), spleen cells
- Experiment notes: Suppression of primary antibody formation (plaque forming cells, Jerne's method)
- Format: in vivo, mice (ddY-strain)
- Stated conditions: Erythrocyte, ip, 96 h; 1 mg./mouse i.p.; read-out: Suppression, Plaque Forming Cells (suppression rate of primary antibody formation)

[
  {
    "Compound": "Cc1ccc(C(=O)Nc2cc(Cl)c(O)c(Cl)c2)c(O)c1",
    "Value": "25 to 50%"
  }
]

Any idea what its inhibition in vivo at 1 mg is? The compound is "O=C(Nc1cccc(Cl)c1O)c1ccccc1O"
50 to 75%

Any idea what its inhibition in vivo at 1 mg is? The compound is "O=C(Nc1ccc(O)c(Cl)c1)c1ccccc1O"
> 75%

Any idea what its inhibition in vivo at 1 mg is? The compound is O=C(Nc1cc(Cl)c(O)c(Cl)c1)c1ccccc1O [Compound-1, 3',5'-Dichloro-2,4'-dihydroxybenzanilide]
> 75%

Any idea what its inhibition in vivo at 1 mg is? The compound is "CC(=O)Oc1ccccc1C(=O)Nc1cc(Cl)c(O)c(Cl)c1"
25 to 50%

Any idea what its inhibition in vivo at 1 mg is? The compound is "Cc1cc(Cl)c(O)c(NC(=O)c2ccccc2O)c1"
50 to 75%

Any idea what its inhibition in vivo at 1 mg is? The compound is "CCC(=O)Oc1ccccc1C(=O)Nc1cc(Cl)c(OC(=O)CC)c(Cl)c1"
50 to 75%

Any idea what its inhibition in vivo at 1 mg is? The compound is "COc1ccc(NC(=O)c2ccc(F)cc2O)cc1"
> 75%

Any idea what its inhibition in vivo at 1 mg is? The compound is "O=C(Nc1ccc(O)cc1)c1ccccc1O"
50 to 75%

Any idea what its inhibition in vivo at 1 mg is? The compound is "O=C(Nc1cc(Br)cc(Br)c1O)c1ccccc1O"
0 to 25%

Any idea what its inhibition in vivo at 1 mg is? The compound is "Cc1ccc(C(=O)Nc2cc(Br)c(O)c(Br)c2)c(O)c1"
0 to 25%

Any idea what its inhibition in vivo at 1 mg is? The compound is "O=C(Oc1ccccc1C(=O)Nc1cc(Cl)c(OC(=O)c2ccccc2)c(Cl)c1)c1ccccc1"
> 75%

* * *

- Tested on: primary antibody formation to sheep red blood cells (SRBC), spleen cells
- Experiment notes: Suppression of primary antibody formation (plaque forming cells, Jerne's method)
- Type: in vivo, mice (ddY-strain)
- Stated conditions: Erythrocyte, ip, 96 h; 1 mg./mouse i.p.; read-out: Suppression, Plaque Forming Cells (suppression rate of primary antibody formation)
Metric name: inhibition in vivo at 1 mg

Please review the entries below; each comes with its answer.
[
  {
    "Compound": "COc1c(F)cc(NC(=O)c2ccc(Cl)cc2O)cc1Cl [Compound 18]",
    "Value": "25 to 50%"
  },
  {
    "Compound": "O=C(Nc1cc(Cl)c(O)c(Cl)c1)c1ccc(F)cc1O [Compound 10]",
    "Value": "25 to 50%"
  },
  {
    "Compound": "CCC(=O)Oc1ccccc1C(=O)Nc1cc(Br)cc(Br)c1OC(=O)CC [Compound 15]",
    "Value": "0 to 25%"
  }
]

Below: the item to evaluate.
Any idea what its inhibition in vivo at 1 mg is? The compound is COc1ccc(NC(=O)c2ccc(C)cc2O)cc1 [Compound-29, 2-Hydroxy-4-methyl-4'-methoxybenzanilide]
25 to 50%
